Please respond with reported half-life for every item in the list.
Test: Pharmacokinetic study in rats after oral administration of RPM extract (UPLC-MS/MS of plasma)
Type: in vivo, Sprague-Dawley rats
Details: male, Sprague-Dawley, in vivo; rat plasma, single oral dose of RPM extract 36 g/kg, n = 6, mean ± SD; read-out: t1/2 (converted)
Supply the numeric figure in h, leaving out any unit text.

Query string: I would be grateful if you could share the reported half-life for O=C1c2cccc(O)c2C(=O)c2c(O)cc(CO)cc21 .
Result string: 3.44

Query string: What do we get for Cc1cc(O)c2c(c1)C(=O)c1cc(O)cc(O)c1C2=O ?
Result string: 8.37

Value source: paper PMC7072103
